Sourced from patent US4015017A

Quick reference: increase in the capillary resistance of the listed items.
# System: guinea pig
# procedure-details: Capillary resistance on the guinea pig (technique of Parrot and Canu)
# Type: in vivo
Provide the reading as a plain figure in %.

Examples from the recorded data:
C[C@@H]1O[C@@H](OC[C@H]2O[C@@H](Oc3c(-c4ccc(OCCO)c(OCCO)c4)oc4cc(OCCO)cc(O)c4c3=O)[C@H](O)[C@@H](O)[C@@H]2O)[C@H](O)[C@H](O)[C@H]1O [trioxyethylrutine, reference compound]; 13
O=C(c1ccc(O)c(O)c1)c1cccc(O)c1O [2,3,3',4'-Tetrahydroxybenzophenone, 2,3,3',4'-tetrahydroxybenzophenone]; 56
O=C(Cc1ccc(O)c(O)c1)c1ccc(O)c(O)c1O; 34

Entry under review: O=C(c1cc(O)c(O)c(O)c1)c1ccc(O)c(O)c1O [2,3,3',4,4',5'-Hexahydroxybenzophenone, 2,3,3',4,4',5'-hexahydroxybenzophenone] . Reported increase in the capillary resistance?
82

---

LD50 listing for selected compounds.
# procedure-details: in vivo
# protocol-conditions: rat, ip, acute toxicity, intraperitoneal administration, rats, read-out: DL50 A. IP
// note: answer is a bare numeric in mg/kg

O=C(c1cc(O)c(O)c(O)c1)c1ccc(O)c(O)c1O [2,3,3',4,4',5'-Hexahydroxybenzophenone, 2,3,3',4,4',5'-hexahydroxybenzophenone]; 355

Item "O=C(Cc1ccc(O)c(O)c1)c1ccc(O)c(O)c1O" has what recorded LD50?
730
